biological target: Cynomolgus T cell receptor on cynomolgus primary T cells (cynomolgus monkey); assay: cell-based or functional assay
QUANTITY_MEASURED: IC50 (M), xCELLigence CHO Flp-In huCD123 cell killing, Cynomolgus T cell mediated killing
Numbers only here, please. The scale is M.

Q. Consider the binder T017000634 (bispecific antibody, also called A0110056A10(E1D)-35GS-T0170056G05(L11V, D27Y, L34Y, M77T, K83R, V89L, F91Y, F95L, Y99W)-A) DVQLVESGGGLVQAGGSLRLSCAASGITSKINDMGWYRQTPGNYREWVASITATGTTNYRDSVKGRFTISRDNAKSTVYLQMNSLKPEDTTVYYCNTFPPISNFWGQGTLVTVSSGGGGSGGGGSGGGGSGGGGSGGGGSGGGGSGGGGSEVQLVESGGGVVQPGGSLRLSCVASGYVHKINFYGWYRQAPGKEREKVAHISIGDQTDYADSAKGRFTISRDESKNTVYLQMNSLRPEDTALYYCRALSRIWPYDYWGQGTLVTVSSA and give its measured IC50 (M), xCELLigence CHO Flp-In huCD123 cell killing, Cynomolgus T cell mediated killing.
A. 1.9e-11

Source of measurements: patent US20240092919A1
